Molecular target: PBRM1 BD2 (UniProt Q86U86 178-291)
Sequence (Q86U86 178-291): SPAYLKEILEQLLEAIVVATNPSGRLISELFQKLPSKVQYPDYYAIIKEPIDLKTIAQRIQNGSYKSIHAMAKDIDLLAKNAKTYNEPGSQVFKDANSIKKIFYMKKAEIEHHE
Assay: NMR titration (1H-15N HSQC); NMR: 0.1 mM 15N-BD, 50 mM K phosphate pH 7.0, 50 mM KCl, 2 mM DTT, 2 mM EDTA, 7% D2O, 25 C; EMSA: 50 mM K phosphate pH 7.0, 10 mM KCl, 2 mM DTT, 2 mM EDTA, 5% sucrose, on ice 1 h, gel at 4 C
Conditions: protein: recombinant; tags: His tag, TEV-cleaved; blunt
pKd: −log10 of the molar value.

BINDER	pKd
dsDNA 11 bp (dsDNA) DNA 1: CGTAGACAGCT DNA 2: AGCTGTCTACG	3.04
